// data source = patent US20130005944A1

- target_of_assay: CXCR4 receptor (human, UniProt P61073 1-352)
- Sequence (P61073 whole entry): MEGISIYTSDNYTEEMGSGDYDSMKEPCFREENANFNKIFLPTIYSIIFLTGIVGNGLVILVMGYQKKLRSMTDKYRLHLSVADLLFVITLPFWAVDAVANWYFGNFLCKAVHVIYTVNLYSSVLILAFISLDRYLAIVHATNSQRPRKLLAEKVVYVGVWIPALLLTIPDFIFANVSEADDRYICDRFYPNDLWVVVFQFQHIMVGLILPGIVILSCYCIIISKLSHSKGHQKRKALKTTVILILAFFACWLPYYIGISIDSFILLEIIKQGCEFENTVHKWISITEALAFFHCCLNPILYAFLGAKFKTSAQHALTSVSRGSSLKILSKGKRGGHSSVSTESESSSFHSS
- test_protocol: cell-based or functional assay
Where no end group is shown, it is not given here. [ ]: non-standard residue; d: D form. The star is where a group is joined. Ala(3-Me-diazirin-3-yl) = CC1(C[C@H](N)C(=O)O)N=N1; 2Nal = N[C@@H](Cc1ccc2ccccc2c1)C(=O)O; Palmitoyl = CCCCCCCCCCCCCCCC(=O)*; Cit = NC(=O)NCCC[C@H](N)C(=O)O; code z = not defined here; hSer = N[C@@H](CCO)C(=O)O; Nle = CCCC[C@H](N)C(=O)O; Pra = C#CC[C@H](N)C(=O)O
Would you mind classing the entries by EC50 (nM), calcium flux, CEM cells, agonist mode (Flexstation)? Ranges: low (below 100 nM), moderate (100 nM to below 200 nM), high (200 nM or more)

binder: Palmitoyl-MGYQKKLRSMTDKYRV (not fully specified) [Compound No. 11 (Pal-MGYQKKLRSMTDKYRV)]
label_class: high

binder: Pal-GGYQKKLR[dP]ATDKYRL [Compound No. 27 (Pal-GGYQKKLRpATDKYRL)]
label_class: low

binder: Palmitoyl-MGYQKKLRSGTDKYRL (not fully specified) [Compound No. 19 (Pal-MGYQKKLRSGTDKYRL)]
label_class: high

binder: Pal-GGYQKK[Ala(3-Me-diazirin-3-yl)]RSATDKYRL [Compound No. 37 (Pal-GGYQKK(photoLeu)RSATDKYRL)]
label_class: low

binder: Pal-MGYQKKLRS[dP]MTDKYRL [Compound No. 9 (Pal-MGYQKKLRSpMTDKYRL)]
label_class: moderate

binder: Pal-[Pra]GYQKKLRSMTDKYRL [Compound No. 24 (Pal-(Pra)GYQKKLRSMTDKYRL)]
label_class: high

binder: Pal-MGYQKKLRSMTDKYR[Nle] [Compound No. 12 (Pal-MGYQKKLRSMTDKYR(Nle))]
label_class: high

binder: {3‑(dodecyloxy)propanoate}-GGYQKKLRSATDKYRL (not fully specified (C-terminus)) [Compound No. 31 (3-(dodecyloxy)propanoate-GGYQKKLRSATDKYRL)]
label_class: moderate

binder: Palmitoyl-MGYQKKLRSMTDKFRL (not fully specified) [Compound No. 15 (Pal-MGYQKKLRSMTDKFRL)]
label_class: moderate

binder: Pal-GGYQKKLR[dP]WTDKYRL [Compound No. 33 (Pal-GGYQKKLRpWTDKYRL)]
label_class: moderate

binder: Pal-GGYQKK[dP]R[dP]ATDKYRL [Compound No. 28 (Pal-GGYQKKpRpATDKYRL)]
label_class: low

binder: Pal-GYQKKLRS[Nle]TDKYRI [Compound No. 20 (Pal-GYQKKLRS(Nle)TDKYRI)]
label_class: high

binder: Palmitoyl-MGYQKKLRSHTDKYRL (not fully specified) [Compound No. 18 (Pal-MGYQKKLRSHTDKYRL)]
label_class: moderate

binder: Palmitoyl-GGYQKKLRSATDKYRL (not fully specified (C-terminus)) [Compound No. 25 (Pal-GGYQKKLRSATDKYRL)]
label_class: low

binder: Palmitoyl-GGYQKKHRSATDKYRL (not fully specified) [Compound No. 38 (Pal-GGYQKKHRSATDKYRL)]
label_class: low

binder: Pal-MGYQKKLRSMTDK[2Nal]RL [Compound No. 16 (Pal-MGYQKKLRSMTDK(Nal)RL)]
label_class: high

binder: Pal-GGYQKKLR[dP][dP]HTDKYRL [Compound No. 32 (Pal-GGYQKKLRppHTDKYRL)]
label_class: low

binder: Pal-GGYQKKLR[dP]HTDKYRL [Compound No. 26 (Pal-GGYQKKLRpHTDKYRL)]
label_class: low

binder: Palmitoyl-MGYQKPLRSMTDKYRL [Compound No. 6 (Pal-MGYQKPLRSMTDKYRL)]
label_class: moderate

binder: Palmitoyl-GGYQKKLRSATDKYRLH (not fully specified) [Compound No. 40 (Pal-GGYQKKLRSATDKYRLH)]
label_class: high

binder: Pal-MGYQKKLRSMTDKY[Cit]L [Compound No. 14 (Pal-MGYQKKLRSMTDKY(Cit)L)]
label_class: high

binder: Pal-[code z]GYQKKLRS[code z]TDKYRL (not fully specified; printed as Pal-zGYQKKLRSzTDKYRL; reading uncertain) [Compound No. 23 (Pal-zGYQKKLRSzTDKYRL)]
label_class: low

binder: Pal-[hSer]GYQKKLRS[hSer]TDKYRL [Compound No. 22 (Pal-xGYQKKLRSxTDKYRL)]
label_class: moderate

binder: Palmitoyl-MGYQKKLPRSMTDKYRL (not fully specified) [Compound No. 7 (Pal-MGYQKKLPRSMTDKYRL)]
label_class: moderate
